test system: RS4;11 cell line; assay: cell growth inhibition, WST-8 assay, RS4; format: cell-based, human; details: Homo sapiens, RS4-11, 96 h, read-out: IC50 (nM) in inhibition of cell growth in the RS4;11 cell line, 4 days, WST-8 assay
ENDPOINT NAME: IC50 (nM)

COMPOUND | SCALE UNIT | READOUT NUMBER
O=C1CCC(N2C(=O)c3cccc(NCCOCCOCCOCCNC(=O)c4ccc(NC(=O)[C@@H]5NC6(CCCCC6)[C@@]6(C(=O)Nc7cc(Cl)ccc76)[C@H]5c5cccc(Cl)c5F)cc4)c3C2=O)C(=O)N1 (stereo partly shown) [Compound 10] | nM | 4.5
